Data origin, for the record: paper PMC6486635

Exercise: state measured Kd for each of the binders provided.
measured-on: IMP1 KH1DDKH2 (Homo sapiens, UniProt Q9NZI8 194-369, K213D;E214D)
Sequence (Q9NZI8 194-369 K213D/E214D): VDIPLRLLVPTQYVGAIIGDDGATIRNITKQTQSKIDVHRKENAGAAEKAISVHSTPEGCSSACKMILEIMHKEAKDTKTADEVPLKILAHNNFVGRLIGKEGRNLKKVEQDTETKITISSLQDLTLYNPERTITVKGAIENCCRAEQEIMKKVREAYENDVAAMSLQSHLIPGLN
protocol-description: ITC; 10 mM sodium phosphate pH 7.4, 50 mM NaCl; ITC 25 C with 2 mM TCEP; BLI 30 C with 0.5 mM TCEP and 0.5 mg/ml BSA; NMR 0.5 mM TCEP; RNAsin 40-100 u/ml
run-conditions: protein: recombinant; tags: 6xHis-GST removed by TEV
Respond with the bare value in µM.

Problem: Retrieve Kd measured for UUCCG (ssRNA) and print it.
Solution: 124

Problem: Retrieve Kd measured for UCCCG (ssRNA) and print it.
Solution: 100
